Task for the reader: assign each of the following compounds its reported Activity.
tested on: HOP-92; test: Cytotoxicity against human HOP92 cells at 10 uM after 48 hrs by sulforhodamine B assay relative to control; assay type: functional
Write the value in % as a bare number.

Input: Request body: readout Activity, system HOP-92, query CCCCNCC(=O)Nc1ccc2c(c1)C(=O)c1cc(NC(=O)CNCCCC)ccc1-2 . Return the value.
Output: 6.92

Input: Request body: readout Activity, system HOP-92, query CCNCCC(=O)Nc1ccc2c(c1)C(=O)c1cc(NC(=O)CCNCC)ccc1-2 . Return the value.
Output: 87.24

Input: Request body: readout Activity, system HOP-92, query CCSCCC(=O)Nc1ccc2c(c1)C(=O)c1cc(NC(=O)CCSCC)ccc1-2 . Return the value.
Output: 103.43

Input: Request body: readout Activity, system HOP-92, query CN1CCN(CC(=O)Nc2ccc3c(c2)C(=O)c2cc(NC(=O)CN4CCN(C)CC4)ccc2-3)CC1 . Return the value.
Output: 93.88

* * *

assay: Cytotoxicity against human EKVX cells at 10 uM after 48 hrs by sulforhodamine B assay relative to control; assay type: functional
EXPERIMENTAL_ENDPOINT: Activity (%)
Write the value in % as a bare number.

Input: // Activity lookup, key: CCCSCC(=O)Nc1ccc2c(c1)C(=O)c1cc(NC(=O)CSCCC)ccc1-2
Output: 100.02

Input: // Activity lookup, key: CCCNCC(=O)Nc1ccc2c(c1)C(=O)c1cc(NC(=O)CNCCC)ccc1-2
Output: 88.56

Input: // Activity lookup, key: CN1CCN(CC(=O)Nc2ccc3c(c2)C(=O)c2cc(NC(=O)CN4CCN(C)CC4)ccc2-3)CC1
Output: 100.31

Input: // Activity lookup, key: O=C(CCN1CCOCC1)Nc1ccc2c(c1)C(=O)c1cc(NC(=O)CCN3CCOCC3)ccc1-2
Output: 99.88

Input: // Activity lookup, key: CCNCC(=O)Nc1ccc2c(c1)C(=O)c1cc(NC(=O)CNCC)ccc1-2
Output: 90.83

* * *

test system: NCI-H522; experiment: Cytotoxicity against human NCI-H522 cells at 10 uM after 48 hrs by sulforhodamine B assay relative to control; assay type: functional
Task for the reader: assign each of the following compounds its reported Activity.
Write the value in % as a bare number.

Input: Request body: readout Activity, system NCI-H522, query CN1CCN(CCC(=O)Nc2ccc3c(c2)C(=O)c2cc(NC(=O)CCN4CCN(C)CC4)ccc2-3)CC1 . Return the value.
Output: 86.63

Input: Request body: readout Activity, system NCI-H522, query CCSCCC(=O)Nc1ccc2c(c1)C(=O)c1cc(NC(=O)CCSCC)ccc1-2 . Return the value.
Output: 90.06

Input: Request body: readout Activity, system NCI-H522, query CCNCC(=O)Nc1ccc2c(c1)C(=O)c1cc(NC(=O)CNCC)ccc1-2 . Return the value.
Output: 82.16

Input: Request body: readout Activity, system NCI-H522, query O=C(CCN1CCOCC1)Nc1ccc2c(c1)C(=O)c1cc(NC(=O)CCN3CCOCC3)ccc1-2 . Return the value.
Output: 102.66

Input: Request body: readout Activity, system NCI-H522, query CN1CCN(CC(=O)Nc2ccc3c(c2)C(=O)c2cc(NC(=O)CN4CCN(C)CC4)ccc2-3)CC1 . Return the value.
Output: 90.02

Input: Request body: readout Activity, system NCI-H522, query CCCNCC(=O)Nc1ccc2c(c1)C(=O)c1cc(NC(=O)CNCCC)ccc1-2 . Return the value.
Output: 63.92

Input: Request body: readout Activity, system NCI-H522, query CCNCCC(=O)Nc1ccc2c(c1)C(=O)c1cc(NC(=O)CCNCC)ccc1-2 . Return the value.
Output: 103.53

Input: Request body: readout Activity, system NCI-H522, query CCCSCC(=O)Nc1ccc2c(c1)C(=O)c1cc(NC(=O)CSCCC)ccc1-2 . Return the value.
Output: 80.15

Input: Request body: readout Activity, system NCI-H522, query O=C(CN1CCCC1)Nc1ccc2c(c1)C(=O)c1cc(NC(=O)CN3CCCC3)ccc1-2 . Return the value.
Output: 72.46

Input: Request body: readout Activity, system NCI-H522, query CCCCNCC(=O)Nc1ccc2c(c1)C(=O)c1cc(NC(=O)CNCCCC)ccc1-2 . Return the value.
Output: -50.74

All values here come from ChEMBL document CHEMBL2439971.
